These data points were gathered from ChEMBL document CHEMBL1135660.

target: Tripeptidyl-peptidase 2 (Rattus norvegicus); experiment: Inhibitory activity against tripeptidyl peptidase II purified from rat liver
Sequence (Q64560 whole entry): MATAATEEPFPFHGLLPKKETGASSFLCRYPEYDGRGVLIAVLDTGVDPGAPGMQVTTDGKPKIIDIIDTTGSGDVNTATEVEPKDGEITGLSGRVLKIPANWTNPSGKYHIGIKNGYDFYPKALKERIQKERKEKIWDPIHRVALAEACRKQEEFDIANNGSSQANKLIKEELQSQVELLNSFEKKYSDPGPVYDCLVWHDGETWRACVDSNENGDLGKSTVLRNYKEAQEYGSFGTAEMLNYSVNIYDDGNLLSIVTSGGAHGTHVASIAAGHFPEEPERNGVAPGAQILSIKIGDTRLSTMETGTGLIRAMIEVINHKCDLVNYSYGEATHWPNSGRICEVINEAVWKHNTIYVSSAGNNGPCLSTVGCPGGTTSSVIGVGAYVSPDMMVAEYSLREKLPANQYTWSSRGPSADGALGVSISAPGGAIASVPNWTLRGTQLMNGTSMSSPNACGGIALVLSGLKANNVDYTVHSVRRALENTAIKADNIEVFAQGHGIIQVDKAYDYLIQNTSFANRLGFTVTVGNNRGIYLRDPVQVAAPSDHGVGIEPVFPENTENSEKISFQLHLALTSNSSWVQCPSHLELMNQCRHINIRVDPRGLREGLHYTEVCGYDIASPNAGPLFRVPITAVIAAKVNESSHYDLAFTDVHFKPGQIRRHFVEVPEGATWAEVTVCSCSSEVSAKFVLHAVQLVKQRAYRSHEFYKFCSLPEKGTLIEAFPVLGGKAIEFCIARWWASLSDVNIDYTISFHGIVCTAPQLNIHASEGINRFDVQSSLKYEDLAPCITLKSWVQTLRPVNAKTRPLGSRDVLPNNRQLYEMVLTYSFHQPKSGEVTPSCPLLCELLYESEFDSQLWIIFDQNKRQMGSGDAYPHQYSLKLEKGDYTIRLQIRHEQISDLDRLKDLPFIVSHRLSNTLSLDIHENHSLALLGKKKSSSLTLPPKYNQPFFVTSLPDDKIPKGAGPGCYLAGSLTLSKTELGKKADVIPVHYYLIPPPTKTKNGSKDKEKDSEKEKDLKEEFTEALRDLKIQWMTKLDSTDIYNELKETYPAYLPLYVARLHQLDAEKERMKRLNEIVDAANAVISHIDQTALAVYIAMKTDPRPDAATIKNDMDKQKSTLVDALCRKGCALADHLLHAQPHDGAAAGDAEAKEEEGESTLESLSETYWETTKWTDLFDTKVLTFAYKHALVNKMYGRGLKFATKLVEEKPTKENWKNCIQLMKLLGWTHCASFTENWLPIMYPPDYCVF
pIC50: −log10 of the molar value.
reported.metric: pIC50

Short answer for CCc1c[nH]c([C@@H]2Cc3ccccc3N2C(=O)[C@H](C)N)n1 : pIC50 was < 5.00
